- Tested on: Plasmodium falciparum
- protocolDetails: microbe, parasite or virus in culture
- experimentalParameters: W2, 72 h
- Description: Antiplasmodial activity against chloroquine-resistant Plasmodium falciparum W2 after 72 hrs by parasite lactate dehydrogenase assay

>  <substanceSmiles>
CCCCNC(=O)C[C@H](O)[C@H](CC(C)C)NC(=O)[C@@H](NC(=O)c1ccc(Oc2ccc(C(=O)NCc3ccccc3)cc2)cc1)[C@@H](C)CC

>  <outputUnit>
nM

>  <measurementQualifier>
>

>  <IC50>
7000

$$$$
>  <substanceSmiles>
CCCCNC(=O)C[C@H](O)[C@H](CC(C)C)NC(=O)[C@@H](NC(=O)c1ccc(Oc2ccc(C(=O)N[C@@H](C)C(=O)NCCCNc3ccnc4cc(Cl)ccc34)cc2)cc1)[C@@H](C)CC

>  <outputUnit>
nM

>  <measurementQualifier>
=

>  <IC50>
64

$$$$
>  <substanceSmiles>
CC(C)C[C@H](NC(=O)OCc1ccccc1)C(=O)N[C@@H](C)C(=O)NCCCNc1ccnc2cc(Cl)ccc12

>  <outputUnit>
nM

>  <measurementQualifier>
=

>  <IC50>
1680

$$$$

---

- Tested on: Plasmodium falciparum
- protocolDetails: microbe, parasite or virus in culture
- experimentalParameters: W2, 72 h
pIC50: −log10 of the molar value.

>  <molecule>
CCCCNC(=O)C[C@H](O)[C@H](CC(C)C)NC(=O)[C@@H](NC(=O)c1ccc(Oc2ccc(C(=O)N[C@@H](CC(C)C)C(=O)N[C@@H](CCCCN)C(=O)NCCCC(C)Nc3cc(OC)cc4cccnc34)cc2)cc1)[C@@H](C)CC (some centres undefined)

>  <targetUnderTest>
Plasmodium falciparum

>  <pIC50>
6.15

$$$$
>  <molecule>
CCCCNC(=O)C[C@H](O)[C@H](CC(C)C)NC(=O)[C@@H](NC(=O)c1ccc(Oc2ccc(C(=O)N[C@@H](CC(C)C)C(=O)N[C@@H](C)C(=O)NCCCNc3ccnc4ccccc34)cc2)cc1)[C@@H](C)CC

>  <targetUnderTest>
Plasmodium falciparum

>  <pIC50>
6.32

$$$$
>  <molecule>
CCCCNC(=O)C[C@H](O)[C@H](CC(C)C)NC(=O)[C@@H](NC(=O)c1ccc(Oc2ccc(C(=O)OCc3ccccc3)cc2)cc1)[C@@H](C)CC

>  <targetUnderTest>
Plasmodium falciparum

>  <pIC50>
5.33

$$$$
>  <molecule>
CCCCNC(=O)C[C@H](O)[C@H](CC(C)C)NC(=O)[C@@H](NC(=O)c1ccc(Oc2ccc(C(=O)NCCCNc3ccnc4cc(Cl)ccc34)cc2)cc1)[C@@H](C)CC

>  <targetUnderTest>
Plasmodium falciparum

>  <pIC50>
7.11

$$$$

---

- targetUnderTest: Cathepsin D (Homo sapiens, UniProt P07339)
- Sequence (P07339 65-162 limits assumed): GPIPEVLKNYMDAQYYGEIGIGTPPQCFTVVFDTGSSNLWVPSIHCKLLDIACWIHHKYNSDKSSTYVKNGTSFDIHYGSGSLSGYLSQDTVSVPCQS
- Sequence (P07339 169-412 limits assumed): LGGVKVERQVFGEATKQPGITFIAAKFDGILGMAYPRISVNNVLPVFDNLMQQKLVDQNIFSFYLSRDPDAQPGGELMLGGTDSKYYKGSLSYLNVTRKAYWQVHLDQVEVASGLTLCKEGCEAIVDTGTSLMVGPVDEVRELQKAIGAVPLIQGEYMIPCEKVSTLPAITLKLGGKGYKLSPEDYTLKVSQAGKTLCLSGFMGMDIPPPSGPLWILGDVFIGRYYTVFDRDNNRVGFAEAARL
Reported IC50 values for a set of molecules
recordedEndpoint: IC50

>  <substanceSmiles>
CCCCNC(=O)C[C@H](O)[C@H](CC(C)C)NC(=O)[C@@H](NC(=O)c1ccc(Oc2ccc(C(=O)NCCCNc3ccnc4cc(Cl)ccc34)cc2)cc1)[C@@H](C)CC

>  <recordedEndpoint>
IC50

>  <valueReported>
220 nM

$$$$
>  <substanceSmiles>
CCCCNC(=O)C[C@H](O)[C@H](CC(C)C)NC(=O)[C@@H](NC(=O)c1ccc(Oc2ccc(C(=O)N[C@@H](C)C(=O)NCCCNc3ccnc4cc(Cl)ccc34)cc2)cc1)[C@@H](C)CC

>  <recordedEndpoint>
IC50

>  <valueReported>
540 nM

$$$$
>  <substanceSmiles>
CCCCNC(=O)C[C@H](O)[C@H](CC(C)C)NC(=O)[C@@H](NC(=O)c1ccc(Oc2ccc(C(=O)N[C@@H](CC(C)C)C(=O)N[C@@H](C)C(=O)NCCCNc3ccnc4ccccc34)cc2)cc1)[C@@H](C)CC

>  <recordedEndpoint>
IC50

>  <valueReported>
300 nM

$$$$
